# reported EC50; entries follow
Target: rat CB2 receptor (rCB2) (Rattus norvegicus)
Construct: expressed in transfected cells; host or cells: CHO-K1 (plasmid pcDNA3.1)
Experiment: cAMP assay (LANCE TR-FRET) in CHO-K1 cells expressing rat CB2
Type: cell-based
READOUT_TYPE: EC50

COMPOUND: CNC(=O)[C@@H](NC(=O)c1nc(-c2ccccc2)n2c1CCN(C(C)=O)CC2)C(C)(C)C [Compound 3-12]
TARGET_OF_ASSAY: rat CB2 receptor (rCB2) (Rattus norvegicus)
RECORDED_VALUE: > 10000 nM

COMPOUND: CNC(=O)[C@@H](NC(=O)c1nc(-c2ccccc2)n2c1CCN(CC(C)C)CC2)C(C)(C)C [Compound 3-10]
TARGET_OF_ASSAY: rat CB2 receptor (rCB2) (Rattus norvegicus)
RECORDED_VALUE: 10 to 100 nM

COMPOUND: CCS(=O)(=O)N1CCc2c(C(=O)N[C@H](C(=O)NC)C(C)(C)C)nc(-c3ccccc3)n2CC1 [Compound 3-14]
TARGET_OF_ASSAY: rat CB2 receptor (rCB2) (Rattus norvegicus)
RECORDED_VALUE: 10 to 100 nM

COMPOUND: CNC(=O)[C@@H](NC(=O)c1nc(-c2ccccc2)n2c1CCN(S(=O)(=O)c1ccc(F)cc1)CC2)C(C)(C)C [Compound 3-15]
TARGET_OF_ASSAY: rat CB2 receptor (rCB2) (Rattus norvegicus)
RECORDED_VALUE: 0.1 to 10 nM

COMPOUND: CNC(=O)[C@@H](NC(=O)c1nc(-c2ccccc2)n2c1CCN(CC1CC1)CC2)C(C)(C)C [Compound 3-11]
TARGET_OF_ASSAY: rat CB2 receptor (rCB2) (Rattus norvegicus)
RECORDED_VALUE: 0.1 to 10 nM

COMPOUND: CNC(=O)[C@@H](NC(=O)c1nc(-c2ccccc2)n2c1CCN(C)CC2)C(C)(C)C [Compound 3-9]
TARGET_OF_ASSAY: rat CB2 receptor (rCB2) (Rattus norvegicus)
RECORDED_VALUE: > 10000 nM

COMPOUND: CNC(=O)[C@@H](NC(=O)c1nc(-c2ccccc2)n2c1CCNCC2)C(C)(C)C [Compound 3-8]
TARGET_OF_ASSAY: rat CB2 receptor (rCB2) (Rattus norvegicus)
RECORDED_VALUE: 10 to 100 nM

====

Target: rat CB2 receptor (rCB2) (Rattus norvegicus)
Construct: expressed in transfected cells; host or cells: CHO-K1 (plasmid pcDNA3.1)
Sequence (Q9QZN9 1-360): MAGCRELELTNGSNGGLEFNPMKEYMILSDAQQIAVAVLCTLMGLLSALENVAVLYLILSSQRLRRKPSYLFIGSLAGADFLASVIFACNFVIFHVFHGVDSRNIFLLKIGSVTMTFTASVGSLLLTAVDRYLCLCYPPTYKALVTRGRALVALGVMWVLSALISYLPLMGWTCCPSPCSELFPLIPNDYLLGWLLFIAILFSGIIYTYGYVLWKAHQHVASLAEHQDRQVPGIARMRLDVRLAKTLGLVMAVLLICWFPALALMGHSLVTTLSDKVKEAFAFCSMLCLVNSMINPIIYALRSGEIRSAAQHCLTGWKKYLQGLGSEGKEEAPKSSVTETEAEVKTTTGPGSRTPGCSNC
Experiment: cAMP assay (LANCE TR-FRET) in CHO-K1 cells expressing rat CB2
Type: cell-based
Conditions: above the detectable range; read-out: EC50 rat CB2 receptor
pEC50: −log10 of the molar value.

SAMPLE_SMILES: Cc1nnc(-c2nc(-c3ccc(F)c(F)c3)n3c2CCCCC3)o1
pEC50: < 5.00
